Record form. Attribute: pIC50. Fill in for each entry.
# System: SHIV
# EXPERIMENTAL DETAILS: Phenoscreen viral entry inhibition assay, SHIV
# Assay type: cell-based
Here pIC50 is given on a logarithmic scale as minus log10 of the concentration in mol/L.

Ask | State the recorded pIC50 for this entry: Cc1cc(CNc2ccccc2)c(C)cc1CNc1ccccc1
Reply | 5.02

Ask | And then COc1cccc(NCc2ccc(CNc3cccc(OC)c3)cc2)c1 , what is it?
Reply | 5.05

Ask | And then c1ccc(CNCc2ccc(CNCc3ccccc3)cc2)cc1 , what is it?
Reply | 5.77

Ask | And then Fc1ccccc1NCc1ccc(CNc2ccccc2F)cc1 , what is it?
Reply | 5.85

Ask | And then C1=CC(CN2CCCNCCNCCCNCC2)CC=C1CN1CCCNCCNCCCNCC1 (stereo not shown) [AMD3100, reference compound] , what is it?
Reply | 7.89

* * *

# SYSTEM TESTED: UniProt:P61073
# Sequence (P61073 whole entry): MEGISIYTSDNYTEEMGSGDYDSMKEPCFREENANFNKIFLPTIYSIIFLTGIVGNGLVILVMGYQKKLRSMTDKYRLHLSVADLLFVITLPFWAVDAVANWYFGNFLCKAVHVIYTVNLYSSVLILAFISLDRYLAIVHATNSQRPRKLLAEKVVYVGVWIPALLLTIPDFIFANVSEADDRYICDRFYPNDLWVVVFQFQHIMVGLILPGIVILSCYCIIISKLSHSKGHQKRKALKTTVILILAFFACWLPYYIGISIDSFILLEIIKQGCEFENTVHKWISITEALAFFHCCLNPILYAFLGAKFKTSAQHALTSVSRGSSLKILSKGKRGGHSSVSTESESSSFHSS
# EXPERIMENTAL DETAILS: Competition assay using biotin-labeled TN14003 on tumor cells
# Format: binding
# RUN PARAMETERS: FIG. 5, cells pre-incubated with various concentrations; read-out: IC50 (biotin-labeled TN14003 detection of CXCR4 after pre-incubation)
pIC50: −log10 of the molar value.
ATTRIBUTE MEASURED: pIC50

Ask | State the recorded pIC50 for this entry: c1ccc(NCc2ccc(CNc3ccccn3)cc2)nc1 [WZZL811S]
Reply | > 9.00

* * *

Record form. Attribute: half-life. Fill in for each entry.
# EXPERIMENTAL DETAILS: Half-life in mice
# RUN PARAMETERS: mouse, in vivo, read-out: t1/2 (min) in mice
The reply should be a number in min, with the unit left off.

Ask | State the recorded half-life for this entry: c1cnc(NCc2ccc(CNc3ncccn3)cc2)nc1 [drawing 205]
Reply | 45

Ask | And then c1ccc(NCc2ccc(CNc3ncccn3)cc2)cc1 [drawing 214] , what is it?
Reply | 14

Ask | And then c1ccc(NCc2ccc(CNc3ccccc3)cc2)cc1 [drawing 208] , what is it?
Reply | 11

Ask | And then COc1cccc(NCc2ccc(CNc3cccc(OC)c3)cc2)c1 [drawing 216] , what is it?
Reply | 14.3

Ask | And then CC(Nc1ccccc1)c1ccc(C(C)Nc2ccccc2)cc1 (stereo not drawn) [drawing 211] , what is it?
Reply | 13.7

* * *

# Tested on: SHIV
# EXPERIMENTAL DETAILS: Phenoscreen viral entry inhibition assay, SHIV
# Type: cell-based
ATTRIBUTE MEASURED: IC50

Ask | State the recorded IC50 for this entry: OCc1ccc(CNc2ncccn2)cc1
Reply | ~15 µM

Ask | And then c1ccc(NCc2ccc(CNc3ccccc3)cc2)cc1 , what is it?
Reply | ~12 µM

Ask | And then c1cnc(NCc2ccc(CNc3ncccn3)cc2)nc1 , what is it?
Reply | ~12 µM

Ask | And then c1ccc(NCc2ccc(CNc3ccccn3)cc2)nc1 [WZZL811S] , what is it?
Reply | > 15 µM

Ask | And then c1ccc(NCc2cccc(CNc3ccccc3)c2)cc1 , what is it?
Reply | > 15 µM
